Each recorded value in this set is attributed to PubChem BioAssay.

Here the recorded growth inhibition is given for each entry.
ASSAY DETAILS: antimalarial activity against Dd2 strain (AID 2302);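 further: 0% = DMSO untreated growth and 100% = chloroquine plus artemisinin killed control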
PARTICULARS: P. falciparum Dd2 in RBCs, LDH growth readout, 72 h; at 2 µM; active compounds read high
Active and inactive are the calls of the source.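 How the source made its calls: active means growth inhibition above 50% at the single 2 µM test dose, taken to imply half-maximal potency below 2 µM; inactive means the rest.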

# COMPOUND, growth inhibition
data = [
    ("CC1(C)CCCC(=Cc2ccc(Br)cc2)C1(O)Cn1ccnc1 (configuration not stated)", "69% (active)"),
    ("Cc1onc(-c2c(Cl)cccc2Cl)c1C(=O)N1CCc2cc3nccc(N4CCN5CCC[C@H]5C4)c3cc21", "58% (active)"),
    ("O=[N+]([O-])c1cccc(S(=O)(=O)N2CCN(CC(O)COc3ccc(-c4ccccc4)cc3)CC2)c1 (configuration not stated)", "32% (inactive)"),
    ("CCCC(C)N(Cc1ccc(C(C)(C)C)cc1)C(=O)c1cccc(C#N)c1 (configuration not stated)", "45% (inactive)"),
    ("COc1ccc(C[C@@H](N)C(=O)N[C@H]2[C@@H](O)[C@H](n3cnc4c(N(C)C)ncnc43)O[C@@H]2CO)cc1", "100% (active)"),
    ("CCOc1ccc2nc3cc(NC(=O)c4ccco4)ccc3c(N)c2c1", "56% (active)"),
]

IN: For the compound shown here, CCCOc1ccc(N2C(N)=NC(N)=NC2(C)C)cc1 , give the reported growth inhibition.
OUT: 2% (inactive)

IN: For the compound shown here, O=C(NCCCCN1CCC(c2ccc3c(c2OCC(O)c2ccc(Cl)cc2)CCCC3)CC1)c1ccc(-c2ccc(C(F)(F)F)cc2)cc1 (configuration not stated) , give the reported growth inhibition.
OUT: 67% (active)

IN: For the compound shown here, CC1CCC(NCc2ccc3c(CNC4CCC(C)CC4)c(O)ccc3c2O)CC1 (configuration not stated) , give the reported growth inhibition.
OUT: 99% (active)

IN: For the compound shown here, Cc1[nH]c(C)c(-c2ccc(OCCOc3ccc(C(F)(F)F)cn3)cc2)c(=O)c1Br , give the reported growth inhibition.
OUT: 97% (active)

###

Here the recorded growth inhibition is given for each entry.
ASSAY DETAILS: inhibition of 3D7 malaria parasite growth – strain 3D7 (AID 2306);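 further: 0% = DMSO wells and 100% = chloroquine plus artemisinin control wells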
PARTICULARS: P. falciparum 3D7 erythrocytic growth, LDH absorbance, 72 h; at 2 µM; active compounds read high
Report the figure in % without appending any unit label.

Solved cases below.
# COMPOUND, growth inhibition / %
data = [
    ("CCCCCCCCn1ccc(=N)cc1", 91),
    ("Cc1ccc(C2CCN(CCCCNC(=O)c3ccc(-c4ccc(C(F)(F)F)cc4)cc3)CC2)c(O)c1", 100),
    ("COc1ccc2c(c1)c(C1CCN(CCCCNC(=O)c3ccc(-c4ccc(C(F)(F)F)cc4)cc3)CC1)cn2C(C)C", 99),
    ("CC(C)(Oc1ccc(Cl)cc1)C(=O)NCCC1CCN(CCCCCNC(=O)/C=C/c2ccc(Cl)c(Cl)c2)CC1", 87),
    ("O=C(NC1CCCCCC1)C1CCCN(C(=O)c2ccc(O)c(-c3ccc(Cl)c(Cl)c3)c2)C1 (configuration not stated)", 98),
    ("Cc1cc(CNCCCCCNCc2ccc(Cl)cc2)ccc1O", 98),
]

IN: For the compound shown here, Oc1ccc(CN2CCC(NCc3cccc4ccccc34)CC2)cc1 , give the reported growth inhibition.
OUT: 97

IN: For the compound shown here, CCC(C)(C)c1ccc(S(=O)(=O)Nc2ccc(Cl)c(OCCN3CCCCC3)c2)cc1 , give the reported growth inhibition.
OUT: 88

IN: For the compound shown here, CC1(C)N=C(N)N=C(N)N1c1ccccc1 , give the reported growth inhibition.
OUT: 98

IN: For the compound shown here, COc1ccccc1CCCN1C(=O)C(c2ccccc2)(c2ccccc2)N=C1N , give the reported growth inhibition.
OUT: 99
